# target: Prostaglandin E2 receptor EP1 subtype (Homo sapiens, UniProt P34995)
# Sequence (P34995 whole entry): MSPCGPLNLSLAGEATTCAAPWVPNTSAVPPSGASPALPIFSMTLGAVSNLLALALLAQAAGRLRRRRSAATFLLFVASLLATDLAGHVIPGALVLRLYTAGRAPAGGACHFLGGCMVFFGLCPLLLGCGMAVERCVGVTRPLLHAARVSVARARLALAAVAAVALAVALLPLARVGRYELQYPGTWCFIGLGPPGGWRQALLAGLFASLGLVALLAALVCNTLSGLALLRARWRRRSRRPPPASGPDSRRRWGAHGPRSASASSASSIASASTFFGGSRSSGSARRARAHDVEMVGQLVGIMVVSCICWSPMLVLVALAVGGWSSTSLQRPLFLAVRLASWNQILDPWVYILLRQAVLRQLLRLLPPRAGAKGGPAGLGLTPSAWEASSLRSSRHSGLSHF
# assay: Agonist activity at human EP1 receptor expressed in HEK293 cells by calcium-5 dye based FLIPR assay
Listing of recorded EC50 by entry.
reportedMetric: EC50

* CCCCCC(O)CCc1cccc(=O)n1CCCCCCC(=O)O (stereo unspecified) | 2.35 µM
* CCCCCC(O)/C=C/c1c(Cl)cc(Cl)c(=O)n1CCc1ccc(C(=O)O)cc1 (racemic) | > 10 µM
* CCCCCC(O)/C=C/c1c(Br)cc(Br)c(=O)n1CCCCCCC(=O)O (stereo unspecified) | > 10 µM
* CCCCCC(O)/C=C/c1c(Cl)cc(Cl)c(=O)n1CCCCCCC(=O)O (stereo unspecified) | > 10 µM
* CCCCCC(C)(O)/C=C/c1c(Cl)cc(Cl)c(=O)n1CCc1ccc(C(=O)O)cc1 (stereo unspecified) | > 10 µM
* CCCCCC(O)CCc1c(Cl)cc(Cl)c(=O)n1CCc1ccc(C(=O)O)cc1 (stereo unspecified) | > 10 µM
